B1: Osa-1-4 twister ribozyme (parent)
chain: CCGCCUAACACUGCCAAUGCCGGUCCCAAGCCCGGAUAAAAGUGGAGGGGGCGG

Variants of: B1
experiment-description: self-cleavage, relative activity (ratio to wild type); higher = more cleavage; co-transcriptional
Some variants, each annotated with its measured self-cleavage.
Respond using a number only.

Use the examples below as a reference point.
{"columns": ["variant-key", "self-cleavage"],
 "data": [
  ["A8U G54U", 0.32],
  ["U18C U43A", 0.65],
  ["A10C U43C", 0.05]
]}

// query What value of self-cleavage has been recorded for this entry: A28G A39C
// result 0.11

// query What value of self-cleavage has been recorded for this entry: G49C U43C
// result 0.1

// query What value of self-cleavage has been recorded for this entry: A17G G30C
// result 0.06

// query What value of self-cleavage has been recorded for this entry: A7G C11A
// result 0.13
